The entries below come with measured Ki values attached.
- subject_of_test: UniProtKB P29275
- Sequence (P29275 whole entry): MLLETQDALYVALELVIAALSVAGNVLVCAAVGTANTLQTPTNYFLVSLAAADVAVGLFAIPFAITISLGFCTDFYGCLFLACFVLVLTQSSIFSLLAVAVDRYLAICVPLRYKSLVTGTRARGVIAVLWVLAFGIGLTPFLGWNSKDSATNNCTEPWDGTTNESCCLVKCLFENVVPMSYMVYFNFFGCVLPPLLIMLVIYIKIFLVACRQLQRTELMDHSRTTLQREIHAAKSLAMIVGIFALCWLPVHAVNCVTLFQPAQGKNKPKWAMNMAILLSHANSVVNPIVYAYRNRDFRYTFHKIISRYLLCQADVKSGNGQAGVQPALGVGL
- assay_details: Displacement of [3H]DPCPX from human adenosine A2B receptor expressed in HEK293 cells
- Assay type: cell-based
- measurement_context: read-out: Log Ki (converted)
property_label: Ki (µM)

> print(dat)
                         structure.notation  property.label  measurement.unit  endpoint.value
1  Cn1c(=O)c2[nH]c(-c3ccc(OCC(=O)N4CCN(c5ncccn5)CC4)cc3)cc2n(C)c1=O              Ki                µM          0.0135
2  CCCn1c(=O)n(C)c(=O)c2[nH]c(-c3ccc(OCC(=O)N4CCC(c5ccccc5)(c5ccccc5)CC4)cc3)cc21              Ki                µM         0.00562
3  CCCn1c(=O)c2[nH]c(-c3ccc(OCC(=O)N4CCN(c5ccccc5Cl)CC4)cc3)cc2n(C)c1=O              Ki                µM          0.0692
4  Cn1c(=O)c2[nH]c(-c3ccc(OCC(=O)N4CCN(c5c(Cl)cncc5Cl)CC4)cc3)cc2n(C)c1=O              Ki                µM         0.00708

* * *

- subject_of_test: Adenosine receptor A2b (Homo sapiens) (UniProt P29275)
- assay_details: Displacement of [3H]DPCPX from human adenosine A2B receptor expressed in HEK293 cells at 0.1 uM
- Type: cell-based
property_label: Activity (%)

> print(dat)
                         structure.notation  endpoint.value
1  COc1ccc(N2CCN(C(=O)COc3ccc(-c4cc5c([nH]4)c(=O)n(C)c(=O)n5C)c(OC)c3)CC2)cc1              30
2  CCCn1c(=O)n(C)c(=O)c2[nH]c(-c3ccc(OC(C)(C)C(=O)N4CCC(c5ccccc5)(c5ccccc5)CC4)cc3)cc21              35
3  O=C(COc1ccc(-c2cc3c([nH]2)c(=O)n(CC(F)(F)F)c(=O)n3CC(F)(F)F)cc1)N1CCN(c2ccccc2)CC1              32
4  Cn1c(=O)c2[nH]c(-c3ccc(OC(C)(C)C(=O)N4CCC(c5ccccc5)(c5ccccc5)CC4)cc3)cc2n(C)c1=O              34

* * *

- subject_of_test: Adenosine receptor A2b (Homo sapiens, UniProt P29275)
- assay_details: Displacement of [3H]DPCPX from human adenosine A2B receptor expressed in HEK293 cells
- Type: cell-based
- measurement_context: read-out: Log Ki (converted)
Ki for assorted molecules
property_label: Ki

> print(dat)
                         structure.notation  endpoint.value
1  COc1ccc(N2CCN(C(=O)COc3ccc(-c4cc5c([nH]4)c(=O)n(C)c(=O)n5C)cc3)CC2)cc1         13.2 nM
2  CCCn1c(=O)c2[nH]c(-c3ccc(OCC(=O)N4CCN(c5ccccc5Cl)CC4)cc3)cc2n(CCC)c1=O         6.92 nM
3  COc1cc(OCC(=O)N2CCN(c3ccccc3)CC2)ccc1-c1cc2c([nH]1)c(=O)n(C)c(=O)n2C         32.4 nM
4  CCCn1c(=O)n(C)c(=O)c2[nH]c(-c3ccc(OCC(=O)N4CCC(c5ccccc5OC)CC4)cc3)cc21         6.17 nM
